As shown below, each of these compounds has a reported TGI value.
# System: CCRF-CEM leukemia
# ASSAY_PROTOCOL: NCI tumour cell line growth inhibition, 48 h

{"COMPOUND": "CC1=C(O)C(=O)C=C2C1=CC=C1[C@@]2(C)CC[C@@]2(C)[C@@H]3C[C@](C)(C(=O)O)CC[C@]3(C)CC[C@]12C", "EXPERIMENTAL_SYSTEM": "CCRF-CEM leukemia", "RESULT_OPERATOR": "=", "TGI / µM": 0.15}
{"COMPOUND": "On1c(-c2ccccc2)nc2ccccc2c1=S", "EXPERIMENTAL_SYSTEM": "CCRF-CEM leukemia", "RESULT_OPERATOR": ">", "TGI / µM": 100}
{"COMPOUND": "CC(C)(C)OC(=O)NCCCNC1(c2cc3ccccc3s2)CCCCC1", "EXPERIMENTAL_SYSTEM": "CCRF-CEM leukemia", "RESULT_OPERATOR": "=", "TGI / µM": 40.3}
{"COMPOUND": "O=C1CSC(c2ccc(Cl)cc2Cl)N1c1ccc(F)cc1 (stereo unspecified)", "EXPERIMENTAL_SYSTEM": "CCRF-CEM leukemia", "RESULT_OPERATOR": "=", "TGI / µM": 19}
{"COMPOUND": "C=CCOc1ccc(C2C(C(=O)OCC)C(=O)CC(C)(O)C2C(=O)OCC)cc1OC (stereo unspecified)", "EXPERIMENTAL_SYSTEM": "CCRF-CEM leukemia", "RESULT_OPERATOR": ">", "TGI / µM": 100}
{"COMPOUND": "CCOC(=O)NC(Nc1ccc([N+](=O)[O-])cc1)(C(F)(F)F)C(F)(F)F", "EXPERIMENTAL_SYSTEM": "CCRF-CEM leukemia", "RESULT_OPERATOR": ">", "TGI / µM": 100}
{"COMPOUND": "Cc1[nH]c2ccccc2c(=O)c1CC=C(Cl)Cl", "EXPERIMENTAL_SYSTEM": "CCRF-CEM leukemia", "RESULT_OPERATOR": ">", "TGI / µM": 100}
{"COMPOUND": "COc1ccc2cc(C(C)C(=O)N3CCOC3=O)ccc2c1 (stereo unspecified)", "EXPERIMENTAL_SYSTEM": "CCRF-CEM leukemia", "RESULT_OPERATOR": ">", "TGI / µM": 100}
{"COMPOUND": "CC/C=C\\C[C@H]1C/C=C2/C(=O)C=C[C@@H]2C/C=C\\CCCC(=O)O1", "EXPERIMENTAL_SYSTEM": "CCRF-CEM leukemia", "RESULT_OPERATOR": "=", "TGI / µM": 5.04}
{"COMPOUND": "N#CC1=C(N)N(c2ccccc2)C(c2ccccc2)C1(C#N)C#N (stereo unspecified)", "EXPERIMENTAL_SYSTEM": "CCRF-CEM leukemia", "RESULT_OPERATOR": "=", "TGI / µM": 33.7}
{"COMPOUND": "O=C(/C=C\\c1ccc(NCc2ccc(C(=O)O)cc2)cc1)CCl", "EXPERIMENTAL_SYSTEM": "CCRF-CEM leukemia", "RESULT_OPERATOR": "=", "TGI / µM": 7.03}
